All values here come from PubChem BioAssay (EPA / NIEHS).

# Read-out: Early growth response protein 1 (EGR1) transcription factor, EGR1 (gene 1958)
# PROCEDURE DETAILS: LTEA_HepaRG_EGR1: Life Technologies and Expression Analysis (LTEA) Assay for Early growth response protein 1 (EGR1) transcription factor using HepaRG (AID 2283490)
# CONDITION CONTEXT: mRNA level, 48 h; actives raise or lower the signal
The source made the active and inactive calls. How the source made its calls: active means hit-call score of the fitted dose curve at least 0.9, where 1 is the maximum; inactive means score below 0.9.
Give one outcome, nothing more. List: active, inactive

Sample answers from the record:
| COMPOUND | CATEGORY LABEL |
| --- | --- |
| Oc1cc2ccccc2c2ccccc12 | inactive |
| COCC(C)O (stereo unspecified) | inactive |
| COc1ccc([N+](=O)[O-])cc1N | inactive |
| CCCCCCCCC(=O)O | inactive |
| CCOC(=O)CC(O)(CC(=O)OCC)C(=O)OCC | inactive |

Name the outcome recorded for "CCCOc1sc(C(=O)N2CCC(c3cc(CN)ccc3F)CC2)c(C)c1Br" in the assay.
inactive

Name the outcome recorded for CCC(C)(C)C1CCC(O)CC1 (stereo unspecified) in the assay.
inactive

Name the outcome recorded for "CC(C)(C)c1ccc(O)c(C(C)(C)C)c1" in the assay.
inactive

Name the outcome recorded for "CC(=O)CC(C)(C)O" in the assay.
inactive

Name the outcome recorded for "CCCOC(=O)c1ccc(O)cc1" in the assay.
inactive

Name the outcome recorded for "CC[C@H](c1ccc(O)cc1)[C@@H](CC)c1ccc(O)cc1" in the assay.
active

Name the outcome recorded for "OCCC(F)(F)C(F)(F)C(F)(F)C(F)(F)C(F)(F)C(F)(F)F" in the assay.
inactive

Name the outcome recorded for "ClC1=C(Cl)C(Cl)(Cl)C(Cl)=C1Cl" in the assay.
inactive

Name the outcome recorded for "O=C(OCCOCCOC(=O)c1ccccc1)c1ccccc1" in the assay.
inactive

Name the outcome recorded for "CCCCCCCCCCCCCCCS(=O)(=O)Oc1ccccc1" in the assay.
inactive

Name the outcome recorded for CCc1ccc(CCOc2ccc(CC3SC(=O)NC3=O)cc2)nc1 (stereo unspecified) in the assay.
active

Name the outcome recorded for "c1ccc2c(c1)ccc1ccccc12" in the assay.
inactive

Name the outcome recorded for "CC(C)CCCCCCOC(=O)CCCCC(=O)OCCCCCCC(C)C" in the assay.
inactive

Name the outcome recorded for "CN(C)C=O" in the assay.
inactive

Name the outcome recorded for "O=c1c(-c2ccc(O)cc2)coc2cc(O)ccc12" in the assay.
inactive

Name the outcome recorded for "OCCC(F)(F)C(F)(F)C(F)(F)C(F)(F)C(F)(F)C(F)(F)C(F)(F)C(F)(F)F" in the assay.
inactive

Name the outcome recorded for OC1CCC(C2CCCCC2)CC1 (stereo unspecified) in the assay.
inactive

Name the outcome recorded for COCC(C)OCC(C)O (stereo unspecified) in the assay.
inactive

Name the outcome recorded for "CC#C[C@]1(O)CC[C@H]2[C@@H]3CCC4=CC(=O)CCC4=C3[C@@H](c3ccc(N(C)C)cc3)C[C@@]21C" in the assay.
active

Name the outcome recorded for "CN1CCN(c2ccccc2/C=C2\SCCN(c3ccc(Cl)c(Cl)c3)C2=O)CC1" in the assay.
active

Name the outcome recorded for "CC(=O)NC1(c2cccc(F)c2)CCN(CC[C@@]2(c3ccc(Cl)c(Cl)c3)CN(c3ccccc3)C(=O)CO2)CC1" in the assay.
active

###

# Read-out: Lipase C (LIPC), LIPC (gene 3990)
# PROCEDURE DETAILS: LTEA_HepaRG_LIPC: Life Technologies and Expression Analysis (LTEA) Assay for Lipase C (LIPC) using HepaRG (AID 2283514)
# CONDITION CONTEXT: mRNA level, 48 h; actives raise or lower the signal
Activity calls are given as the source filed them. Rule for the calls: active = hit-call score of the fitted dose curve at least 0.9, where 1 is the maximum; inactive = score below 0.9.
Give one outcome, nothing more. List: class 1 for active, class 0 for inactive

| COMPOUND | CATEGORY LABEL |
| --- | --- |
| Oc1cccc(O)c1 | class 0 |
| CCOC(=O)CC(O)(CC(=O)OCC)C(=O)OCC | class 0 |
| Cc1oc(-c2ccccc2)nc1CCOc1ccc(C[C@H](Nc2ccccc2C(=O)c2ccccc2)C(=O)O)cc1 | class 0 |

Name the outcome recorded for "CC[C@H](C)[C@@H](C(=O)O)n1sc2ccccc2c1=O" in the assay.
class 0

Name the outcome recorded for "Cc1cc(C)c(O)c(C)c1" in the assay.
class 0

Name the outcome recorded for "C[C@@H]1C[C@H]2[C@@H]3CCC4=CC(=O)C=C[C@]4(C)[C@@]3(F)[C@@H](O)C[C@]2(C)[C@@]1(O)C(=O)COP(=O)(O)O" in the assay.
class 0

Name the outcome recorded for COCC(C)OCC(C)O (configuration not stated) in the assay.
class 0

###

# Read-out: Tissue Factor, F3 (gene 2152)
# PROCEDURE DETAILS: BSK_LPS_TissueFactor: BioMAP Diversity Plus: LPS Assay for Tissue Factor Biomarker Activity (AID 2283084)
# CONDITION CONTEXT: primary human HUVEC with PBMC; actives raise or lower the signal
# Method: BSK_LPS is a cell-based, multiplexed-readout assay that uses umbilical vein endothelium and peripheral blood mononuclear cells, a human vascular primary cell co-culture, with measurements taken at 24 hours after chemical dosing in a 96-well plate.BSK_LPS_TissueFactor is an assay component measured in the BSK_LPS assay. […] This assay endpoint, BSK_LPS_TissueFactor, was analyzed with bidirectional fitting relative to DMSO as the negative control and baseline of activity. […]
The source made the active and inactive calls. How the source made its calls: active means hit-call score of the fitted dose curve at least 0.9, where 1 is the maximum; inactive means score below 0.9.
Give one outcome, nothing more. List: active, inactive

Sample answers from the record:
| MOLECULE | CATEGORY LABEL |
| --- | --- |
| CCCOC(=O)c1ccc(O)cc1 | inactive |
| CCCCCCCCOC(=O)CCCCCCCCC(=O)OCCCCCCCC | inactive |
| C#C[C@]1(O)CC[C@H]2[C@@H]3CCC4=CC(=O)CC[C@@H]4[C@H]3CC[C@@]21C | inactive |
| CCC(=C(c1ccc(O)cc1)c1ccc(OCCN(C)C)cc1)c1ccccc1 | active |
| OC1CCC(C2CCCCC2)CC1 (configuration not stated) | inactive |
| Cc1cc(CCN2CCN(c3nsc4ccccc34)CC2)cc2c1NC(=O)CC2(C)C | active |
| CC(C)(C)c1cccc(C(C)(C)C)c1O | inactive |
| CCCCCCCCCCCCc1ccccc1S(=O)(=O)O | inactive |
| NC(=O)N(O)[C@@H]1C=C[C@H](Oc2cccc(Oc3ccc(F)cc3)c2)C1 | inactive |
| CC[C@H](c1ccc(O)cc1)[C@@H](CC)c1ccc(O)cc1 | active |

Name the outcome recorded for "CN(C)C=O" in the assay.
inactive

Name the outcome recorded for "Cc1cc(C)c(O)c(C)c1" in the assay.
inactive

Name the outcome recorded for N#C[C@@H]1CC(F)(F)CN1C(=O)CNC1CC2CCC(C1)N2c1ncccn1 (some centres not stated) in the assay.
inactive

Name the outcome recorded for "CC(C)(C)c1cc(C(C)(C)C)c(O)c(C(C)(C)C)c1" in the assay.
active

Name the outcome recorded for "CC[C@H](C)[C@@H](C(=O)O)n1sc2ccccc2c1=O" in the assay.
inactive

Name the outcome recorded for "CCCCCCC(=O)O" in the assay.
inactive

Name the outcome recorded for "Nc1cccc2c(N)cccc12" in the assay.
inactive

Name the outcome recorded for "COc1ccc([N+](=O)[O-])cc1N" in the assay.
inactive

Name the outcome recorded for "CCCCCCCC(=O)O" in the assay.
inactive

Name the outcome recorded for "c1ccc2cc3c(ccc4ccccc43)cc2c1" in the assay.
active

Name the outcome recorded for "CC(=O)NC1(c2cccc(F)c2)CCN(CC[C@@]2(c3ccc(Cl)c(Cl)c3)CN(c3ccccc3)C(=O)CO2)CC1" in the assay.
inactive

Name the outcome recorded for "CC(C)(C)CC(C)(C)c1ccc(O)c(-n2nc3ccccc3n2)c1" in the assay.
inactive

###

# PROCEDURE DETAILS: BSK_SAg_SRB: Viability Assessment in the BioMAP Diversity Plus: SAg Assay (AID 2283096);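 further: cells read one day after compound addition; hits may be either gain or loss of signal compared with DMSO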
# CONDITION CONTEXT: primary human HUVEC with PBMC
# Experimental: BSK_SAg is a cell-based, multiplexed-readout assay that uses umbilical vein endothelium and peripheral blood mononuclear cells, a human vascular primary cell co-culture, with measurements taken at 24 hours after chemical dosing in a 96-well plate.BSK_SAg_SRB is an assay component measured in the BSK_SAg assay. […] This assay endpoint, BSK_SAg_SRB, was analyzed with bidirectional fitting relative to DMSO as the negative control and baseline of activity. […]
Active and inactive are the calls of the source. The calls were made as follows: active = hit-call score of the fitted dose curve at least 0.9, where 1 is the maximum; inactive = score below 0.9.
MEASUREMENT LABEL: AC50

Example entries and their recorded answers appear below.
| SMI | AC50 |
| --- | --- |
| C[C@@H]1C[C@H]2[C@@H]3CCC4=CC(=O)C=C[C@]4(C)[C@@]3(F)[C@@H](O)C[C@]2(C)[C@@]1(O)C(=O)COP(=O)(O)O | inactive |
| C#C[C@]1(O)CC[C@H]2[C@@H]3CCC4=CC(=O)CC[C@@H]4[C@H]3CC[C@@]21C | 7.46 µM (active) |
| CN1CCN(c2ccccc2/C=C2\SCCN(c3ccc(Cl)c(Cl)c3)C2=O)CC1 | 5.22 µM (active) |
| CCCOC(=O)c1ccc(O)cc1 | inactive |

Okay, now this compound:
The reported AC50 of the compound "CCCCCCCCOC(=O)CCCCCCCCC(=O)OCCCCCCCC" was inactive
